assayed system: Fuc(a1-2)Gal(b1-4)[Fuc(a1-3)]GlcNAc(b1-2)[Fuc(a1-2)Gal(b1-4)[Fuc(a1-3)]GlcNAc(b1-4)]Man(a1-3)[Fuc(a1-2)Gal(b1-4)[Fuc(a1-3)]GlcNAc(b1-2)Man(a1-6)]Man(b1-4)GlcNAc(b1-4)GlcNAc
procedure text: glycan array binding signal (z-score within array); higher = stronger binding
experimental context: glycan notation: IUPAC condensed, linker removed
This excerpt belongs to a sample that is enriched for the strongest signals.
Give 1 (yes) when the value for glycan array binding signal (z-score) is at least 2. Give 0 (no) when it is less.

These solved cases illustrate the format of a correct answer.
{"binder": "his-Lectin-24A (Drosophila melanogaster) (protein) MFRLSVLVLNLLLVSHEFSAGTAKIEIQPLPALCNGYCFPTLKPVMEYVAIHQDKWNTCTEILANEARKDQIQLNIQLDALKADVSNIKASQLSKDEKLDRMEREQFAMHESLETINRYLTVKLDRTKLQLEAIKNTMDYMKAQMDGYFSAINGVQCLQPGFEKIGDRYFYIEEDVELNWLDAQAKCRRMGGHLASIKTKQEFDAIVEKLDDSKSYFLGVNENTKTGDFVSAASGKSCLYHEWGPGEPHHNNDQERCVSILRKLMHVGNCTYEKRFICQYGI", "category": "0 (no)"}
{"binder": "CD34 (Homo sapiens), P28906 (protein) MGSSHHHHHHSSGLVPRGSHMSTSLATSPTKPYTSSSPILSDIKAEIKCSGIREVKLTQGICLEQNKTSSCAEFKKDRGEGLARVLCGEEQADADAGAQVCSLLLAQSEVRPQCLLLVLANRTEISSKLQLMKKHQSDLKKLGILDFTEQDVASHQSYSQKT", "category": "0 (no)"}
{"binder": "Ovorubin (Pomacea canaliculata), J7I2T6 (protein) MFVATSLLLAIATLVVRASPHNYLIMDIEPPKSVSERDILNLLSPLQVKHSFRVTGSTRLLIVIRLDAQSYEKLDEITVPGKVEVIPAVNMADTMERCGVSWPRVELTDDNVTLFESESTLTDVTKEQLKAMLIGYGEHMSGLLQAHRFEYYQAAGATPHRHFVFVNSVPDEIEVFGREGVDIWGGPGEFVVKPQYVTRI", "category": "0 (no)"}
{"binder": "Protectin (Homo sapiens), P13987 (protein) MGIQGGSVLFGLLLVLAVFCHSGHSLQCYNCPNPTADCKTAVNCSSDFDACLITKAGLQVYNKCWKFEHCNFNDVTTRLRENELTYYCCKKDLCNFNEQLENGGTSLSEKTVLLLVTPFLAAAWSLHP", "category": "1 (yes)"}

IN: Does Clec49 (Caenorhabditis elegans) (protein) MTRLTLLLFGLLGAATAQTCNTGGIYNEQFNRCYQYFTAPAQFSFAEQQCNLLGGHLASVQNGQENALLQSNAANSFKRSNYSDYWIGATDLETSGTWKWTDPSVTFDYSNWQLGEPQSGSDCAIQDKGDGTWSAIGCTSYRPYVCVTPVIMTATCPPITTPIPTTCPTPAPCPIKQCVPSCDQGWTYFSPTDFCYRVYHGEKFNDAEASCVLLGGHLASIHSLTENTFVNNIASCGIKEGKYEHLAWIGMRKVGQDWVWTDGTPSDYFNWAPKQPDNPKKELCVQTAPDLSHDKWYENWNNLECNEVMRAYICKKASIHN have a reported glycan array binding signal (z-score) of at least 2?
OUT: 1 (yes)
